pKd by entry:
- target.of.assay: T1, LARP6C La-module (Arabidopsis thaliana, UniProt Q9LHL3 137-332)
- T1 sequence: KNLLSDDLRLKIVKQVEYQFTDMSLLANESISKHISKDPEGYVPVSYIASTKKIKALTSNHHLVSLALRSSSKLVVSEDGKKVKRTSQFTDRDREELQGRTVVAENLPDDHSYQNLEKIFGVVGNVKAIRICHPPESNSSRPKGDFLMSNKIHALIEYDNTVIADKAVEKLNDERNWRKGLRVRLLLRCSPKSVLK
- assay.notes: EMSA
The quantity pKd is defined as the negative base-10 logarithm of the molar concentration.

INSERT INTO results (binder, endpoint_value) VALUES
  ('CUUCUUUCUUUCUUUUUUGUU (ssRNA) [B1]', 5.46);

// moving on: another record for pKd
Returns the measured pKd for the input binder. Input: UCUCUCUGUUUCUUAUUCAUC (ssRNA) [B2] 5.25

Ref: paper doi:10.1101/2020.11.27.401307
